experiment: acute toxicity in the rat (LD50) by the oral or intraperitoneal route; conditions: in vivo, os, read-out: A/B (LD50/ID50, therapeutic index)
metric: selectivity ratio

Enquiry: Any idea what selectivity ratio was measured for Cl.FC(F)(F)c1cccc(C2=CCN(CCc3ccncc3)CC2)c1 [Example 3, hydrochloride] ?
Return: 49.6

Enquiry: Any idea what selectivity ratio was measured for Cl.FC(F)(F)c1cccc(C2=CCN(CCc3ccc4ccccc4c3)CC2)c1 [Example 7, hydrochloride] ?
Return: > 76.6

Enquiry: Any idea what selectivity ratio was measured for Cl.FC(F)(F)c1cccc(C2=CCN(CCc3ccccn3)CC2)c1 [Example 1, hydrochloride] ?
Return: 56
